- System: SK-MEL-28 melanoma
- assay method text: NCI tumour cell line growth inhibition, 48 h
Reported TGI values follow for various compounds

| compound | TGI |
| --- | --- |
| CC(O)C1(O)C(O)CC(OC2c3cc4c(c(O)c3[C@@H]3C[C@@]2(C)OC32C=c3cc[nH]c3=N2)C(=O)c2cccc(O)c2C4=O)OC1C (some centres undefined) | 3.78 µM |
| O=C(Cc1csc2[n+]1C(=O)/C(=C/c1ccc(Cl)cc1)S2)Nc1ccccc1 | > 100 µM |
| COc1cc2c(cc1OC)C1CN3CCCC3C(O)C1c1cc(OC)c(OC)cc1-2 (centres undefined) | > 100 µM |
| O=C1NC(=Nc2ccccc2Cl)N/C1=C\c1c(Cl)cccc1Cl | > 100 µM |
| c1ccc(-c2sc(-c3ccccc3)c3c2C(c2ccccc2)c2c(-c4ccccc4)sc(-c4ccccc4)c2C3c2ccccc2)cc1 (centres undefined) | > 100 µM |
| COc1cc2c(SCCN(C)C)nc3ccccc3c2c2ccccc12 | 3.17 µM |
| CC(C)(C)OC(=O)NC(Cc1ccc(OC(C)(C)C)cc1)C(=O)N[C@H]1CC[C@H](C(=O)O)C1 (some centres undefined) | > 100 µM |
| COc1ccc(/C=C/c2cc(O)cc(OC3OC(CO)C(O)C(O)C3O)c2)cc1O (centres undefined) | > 100 µM |
| COc1cccc(N2C(=N)/C(=C3\Nc4ccccc4S3)CC2=O)c1 | > 100 µM |
| O=C(Cn1c2ccc(Br)cc2c2nc3ccccc3nc21)NNC(=O)NC1CCCCC1 | > 100 µM |
| COC1=CC(=O)C2=C(C1=O)[C@H]1CC[C@]3(C)C(=O)CC[C@H]3[C@@H]1CC2 | > 100 µM |
| CC1=CP(=O)(OC(C)C)C=C(C)C1=C(Cl)Cl (centres undefined) | > 100 µM |
| CN1CCN(CCCCCOc2cc(O)c3c(=O)cc(-c4ccccc4)oc3c2)CC1 | 4.25 µM |
| Nc1nc(N)c2c(Cl)c(CNc3ccc(Cl)c(Cl)c3)ccc2n1 | 18.7 µM |
| CN1C(=O)C(O)CC1c1ccccc1F (centres undefined) | > 100 µM |
| C[Si](C)(C)CCOCN(C(=O)C1=CCC2(CC1)OCCO2)c1ccccc1I | 42.9 µM |
| COC(=O)C1=C(C)N(NC(N)=O)C2(N)N(NC(N)=O)C(C)=C(C(=O)OC)C12C#N (centres undefined) | > 100 µM |
| CCP(C)(=O)CC | > 100 µM |
| CC(=O)OC[C@@]1(C)[C@@H]2[C@@H]3[C@@]4(CO[C@]3(C)C(=O)[C@@]3(OC(C)=O)C[C@H](C)[C@H](OC(C)=O)[C@@H]3[C@H]4OC(C)=O)[C@H](OC(=O)c3ccccc3)C[C@@H]21 | > 100 µM |
| COC12OCCN(C)C1=CC(=O)C1N=NCC12 (centres undefined) | > 100 µM |
| Cn1cc(Nc2nccc(-c3ccc4c(c3)CN(C3COC3)CC[C@H]4NC(=O)c3cn(C(C)(C)C)nn3)n2)cn1 | > 100 µM |
| O=C1NC(=NCCc2ccccc2F)S/C1=C\c1ccc2ncccc2c1 | > 25 µM |
| CC(NC1=NCCO1)c1ccsc1 (centres undefined) | 43 µM |
| CCN(CC)Cc1cc(Nc2ccnc3ccc(OC)cc23)ccc1O | 10.4 µM |

* * *

Reported TGI values follow for various molecules
- Tested on: NCI-H226 lung
- assay method text: NCI tumour cell line growth inhibition, 48 h

| molecule | tested target | TGI |
| --- | --- | --- |
| Cn1cc(Nc2nccc(-c3ccc4c(c3)CN(C3COC3)CC[C@H]4NC(=O)c3cn(C(C)(C)C)nn3)n2)cn1 | NCI-H226 lung | > 100 µM |
| O=S(=O)(N=[Se](=O)(c1ccccc1)c1ccccc1)c1ccccc1 | NCI-H226 lung | > 100 µM |
| OCC1NC(CO)C(O)C1O (configuration not stated) | NCI-H226 lung | > 100 µM |
| c1ccc(CN2C3C4N(Cc5ccccc5)C2C2N(Cc5ccccc5)C(C(N2Cc2ccccc2)N4Cc2ccccc2)N3Cc2ccccc2)cc1 | NCI-H226 lung | > 100 µM |
| O=C1NC(=S)NC(=O)C1=Cc1ccc([N+](=O)[O-])o1 | NCI-H226 lung | > 100 µM |
| O=C(Oc1ccc(C(c2c(O)c3ccccc3oc2=O)c2c(O)c3ccccc3oc2=O)cc1)c1ccc(C(=O)c2ccccc2)cc1 | NCI-H226 lung | 25.9 µM |
| O=C(c1ccc(Cl)c(Cl)c1)N(C(=S)OC12CC3CC(CC(C3)C1)C2)c1ccccc1 | NCI-H226 lung | > 100 µM |
| C=C(CC)C(=O)c1ccc(OCC(=O)O)c(Cl)c1Cl | NCI-H226 lung | 45.8 µM |
| O=C(Nc1nc2ccc(OC(F)(F)F)cc2s1)c1ccc(F)cc1 | NCI-H226 lung | > 100 µM |
| O=C(O)C1CC[N-]CC1.O=C(O)C1CC[N-]CC1.[NH2-].[NH2-].[Pt+4] | NCI-H226 lung | > 100 µM |
| Cc1ncnc2c1ccn2[C@@H]1C[C@H](Oc2cc(C(F)F)c(F)c3c2CNCC3)[C@@H](O)[C@H]1O | NCI-H226 lung | > 100 µM |
| Cc1c(N)c(C#N)c2n(C)c3ncccc3n2c1=O | NCI-H226 lung | > 100 µM |
| c1ccc(C2=Nc3ccccc3N3CNN=C23)cc1 | NCI-H226 lung | > 100 µM |
| COC1=CC(=O)C2=C(C1=O)[C@H]1CC[C@]3(C)C(=O)CC[C@H]3[C@@H]1CC2 | NCI-H226 lung | 49.7 µM |
| CC(O)C1(O)C(O)CC(OC2c3cc4c(c(O)c3[C@@H]3C[C@@]2(C)OC32C=c3cc[nH]c3=N2)C(=O)c2cccc(O)c2C4=O)OC1C (some centres not stated) | NCI-H226 lung | 3.17 µM |
| O=c1[nH]c(-c2ccccc2)nc2cc([N+](=O)[O-])c(/C(Cl)=C/c3ccccc3)cc12 | NCI-H226 lung | > 100 µM |
| Cc1cc2c3c(nc4ccccc42)C(=O)c2cccnc2-c3n1 | NCI-H226 lung | 3.26 µM |

* * *

Reported TGI values follow for various compounds
- Tested on: LOX IMVI melanoma
- assay method text: NCI tumour cell line growth inhibition, 48 h
assay endpoint: TGI

| compound | tested target | result value |
| --- | --- | --- |
| O=C(O)CCC1C(=O)C2CCN1CC2 (configuration not stated) | LOX IMVI melanoma | > 100 µM |
| CC(=O)n1nc(-c2[nH]c(C)c(-c3nn(C(C)=O)c(=S)o3)c2C)oc1=S | LOX IMVI melanoma | > 100 µM |
| CCCCN(CCCC)CC(C(=O)Nc1ccc([N+](=O)[O-])cc1[N+](=O)[O-])/C(C)=N\NC(=O)c1ccncc1 (configuration not stated) | LOX IMVI melanoma | > 100 µM |
| CN(C)/C=N/c1cc(=O)n(C)c(=O)n1C | LOX IMVI melanoma | > 100 µM |
| CN1CC=C(C#CC(C)(C)O)CC1 | LOX IMVI melanoma | > 37.5 µM |
| Cc1c(N)c(C#N)c2n(C)c3ncccc3n2c1=O | LOX IMVI melanoma | > 100 µM |
| CC1=C(C)C2(C#N)C(=O)N3C(=NC(c4ccco4)NC3c3ccco3)C2(C#N)C(c2ccco2)N1 (configuration not stated) | LOX IMVI melanoma | > 100 µM |
| O=C1CCC2(c3ccccc3)OCC([C@@H](O)c3ccccc3)N12 (some centres not stated) | LOX IMVI melanoma | > 100 µM |
| CNc1ccc(C)cc1S(=O)(=O)c1ccccc1[N+](=O)[O-] | LOX IMVI melanoma | > 100 µM |
| CC(=O)[CH-]C(=O)c1ccccc1.CC(=O)[CH-]C(=O)c1ccccc1.CC[C@H](CCC(C)[C@H]1CCC2[C@@H]3CC=C4C[C@@H]([O-])CC[C@]4(C)C3CC[C@@]21C)C(C)C.CC[C@H](CCC(C)[C@H]1CCC2[C@@H]3CC=C4C[C@@H]([O-])CC[C@]4(C)C3CC[C@@]21C)C(C)C.Cl.[Ti+4] (some centres not stated) | LOX IMVI melanoma | > 25 µM |
| Nc1nc2c(ncn2C2OC(CO)C(O)C2O)c(=O)o1 (configuration not stated) | LOX IMVI melanoma | > 100 µM |
| COc1ccc(N=Nc2c(-c3ccccc3)nn(C(=O)CC(=O)Nc3ccc(OC)cc3)c2-c2ccccc2)cc1 | LOX IMVI melanoma | > 100 µM |
| O=C(Nc1ccc(C(F)(F)F)cc1[N+](=O)[O-])C(=O)Nn1c(=S)[nH]c2ccccc2c1=O | LOX IMVI melanoma | > 100 µM |
| CCCN(CCCC(NC(C)=O)C(=O)NCc1ccccc1)C(=O)N(C)N=O (configuration not stated) | LOX IMVI melanoma | > 100 µM |
| COc1ccc(/C=C/c2cc(O)cc(OC3OC(CO)C(O)C(O)C3O)c2)cc1O (configuration not stated) | LOX IMVI melanoma | > 100 µM |
| O=C1NC(=NCCc2ccccc2F)S/C1=C\c1ccc2ncccc2c1 | LOX IMVI melanoma | > 25 µM |
| Cc1cc2c(cc1Cl)SC(NNC(=O)c1ccccc1)=NS2(=O)=O | LOX IMVI melanoma | > 10 µM |
| COc1ccc(CCn2ccc(C)n2)c(OC)c1 | LOX IMVI melanoma | > 100 µM |
| COc1ccc(NCc2cccc3c(=O)c4ccc(Cl)cc4oc23)cc1 | LOX IMVI melanoma | > 100 µM |
| CC(C)=NC(C(=O)O)C(C)(C)S (configuration not stated) | LOX IMVI melanoma | > 100 µM |
| Cc1ccc(S(=O)(=O)NCCCSCCN)cc1 | LOX IMVI melanoma | > 100 µM |
| c1ccc(C2(c3cc4ccccc4[nH]3)OCCO2)nc1 | LOX IMVI melanoma | > 100 µM |
